# System: Influenza A virus
# METHOD SUMMARY: Antiviral activity against Influenza A virus (A/Puerto Rico/8/34(H1N1)) infected in MDCK cells assessed as inhibition of virus induced cytopathicity after 48 hrs
# Format: functional, organism-based
# PROTOCOL CONDITIONS: A/Puerto Rico/8/1934(H1N1)
ASSAY READOUT: IC50 (µM)
The answer is to be given in µM; state only the numeric part.

Recorded IC50, per entry:
Asked: Item CCC(C)CC(C)/C=C(/C=C(C)\C=C\C=C\C=C\C=C\C=C\c1cc(O)c([C@@H]2O[C@H](CO)[C@H](O)[C@H](O)[C@H]2O)c(=O)o1)C(=O)O (stereo partly drawn) : provide IC50
Given back: 91.5

Asked: Item CCC(C)CC(C)/C=C(/C=C(C)/C=C/C=C/C=C/C=C/C=C/c1cc(O)c([C@@H]2O[C@H](CO)[C@H](O)[C@H](O)[C@H]2O)c(=O)o1)C(=O)O (stereo partly drawn) : provide IC50
Given back: 101

Now turn to the next compound.
Asked: Item NC(=O)c1ncn([C@@H]2O[C@H](CO)[C@@H](O)[C@H]2O)n1 : provide IC50
Given back: 115
